Measured Target: T1, human CD154 (human, UniProt P29965 113-261, limits assumed)
T1 construct: also called CD154 antigen; CD40L
T1 sequence (looked up): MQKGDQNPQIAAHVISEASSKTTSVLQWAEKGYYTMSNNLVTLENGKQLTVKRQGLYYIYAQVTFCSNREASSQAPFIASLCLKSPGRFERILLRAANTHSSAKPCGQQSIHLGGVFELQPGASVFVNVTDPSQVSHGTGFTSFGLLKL
Assay Procedure: SPR, Biacore 3000, 25 C; antibody immobilized, CD154 antigen flowed over; average n = 6
I'd be grateful if you could share measured Fold improvement in KD (compared to IDEC131) for these entries.

# Binder, Observed
records = [
    ("variant 28, humanized anti-human CD154 antibody derived from IDEC-131 (antibody, V domains shown) VH: EVQLQESGPGLVKPSETLSLTCTVSGDSITNGFWIWIRKPPGNKLEYMGYISYSGSTYYNPSLKSRISISRDTSKNQFSLKLSSVTAADTGVYYCAYRSYGRTPYYFDYWGQGTTLTVSS VL: DIVMTQSPSFLSASVGDRVTITCKAPSSLGHAVAWYQQKPGKSPKLLIYSASNRYTGVPDRFSGSGSGTDFTLTISSLQPEDFADYFCQQYDDYPYTFGGGTKLEIK", "4.8 fold"),
]

Name the reported Fold improvement in KD (compared to IDEC131) value associated with the binder variant 27, humanized anti-human CD154 antibody derived from IDEC-131 (antibody, V domains shown) VH: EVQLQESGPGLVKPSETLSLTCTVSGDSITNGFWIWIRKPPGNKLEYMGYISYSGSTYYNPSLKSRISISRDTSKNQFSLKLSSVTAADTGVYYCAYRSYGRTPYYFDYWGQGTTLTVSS VL: DIVMTQSPSFLSASVGDRVTITCKASQHLGHAVAWYQQKPGKSPKLLIYSASNRYTGVPDRFSGSGSGTDFTLTISSLQPEDFADYFCQQYDDYPYTFGGGTKLEIK
4.5 fold
